Hello, the source for this data is ChEMBL document CHEMBL4130412, in case you need it.

Assay: Photochemical stability of the compound assessed as compound degradation under sunlight in EtOH solution measured after 4 days by HPLC analysis
Type: physicochemical
Details: read-out: Drug degradation
Experimental Readout: degraded at 96 h (%)
Write the answer as a number in %, unit excluded.

For CC(C)=CCC/C(C)=C/CC/C(C)=C/COc1ccc2ccc(=O)oc2c1 the compound record lists degraded at 96 h as 91.6

====

Test: Photostability of the compound assessed as parent compound remaining under sunlight exposed for 6 days in EtOH solution measured in presence of antioxidant DL-alpha-tocopherol acetate by TLC method
Type: physicochemical
Settings: read-out: Stability
Experimental Readout: remaining at 144 h (%)
Write the answer as a number in %, unit excluded.

For CC(C)=CCC/C(C)=C/CC/C(C)=C/COc1ccc2ccc(=O)oc2c1 the molecule record lists remaining at 144 h as 10
